Numbers sourced from PubChem BioAssay (NCI).

# Tested on: MOLT-4 leukemia
# procedure-text: NCI-60 one-dose screen, 48 h (100 = growth as untreated, 0 = no growth, -100 = all killed)
# test-conditions: 10 µM unless noted
About 83,000 compounds went through this panel and 20% of them were active in at least one assay; those are over-represented in the sample as a whole.
Entries get a class label from measured growth. See ranges: lower = under 70%, middle = from 70% up to 90%, upper = 90% and over

Here's what some known entries look like.
>>> print(df.to_string())
                                smiles_code  answer_label
0  COc1ccc(C(=O)COc2ccc(/C=C3\Oc4ccc5ccccc5c4C3=O)cc2)cc1         lower
1  O=C(/C=C(\Nc1ccccc1)c1ccccc1)c1cn(-c2ccc([N+](=O)[O-])cc2)nn1         lower
2              C=CCN(/C=C/CN(CC=C)CC=C)CC=C         upper
3  Cc1cc(C)nc(NS(=O)(=O)c2ccc(Nc3nc4nc(SCc5ccccc5)nc(-c5ccc(O)cc5)c4c(=O)[nH]3)cc2)n1        middle
4                 Cc1cccc2nnc(-c3ccccc3)n12         upper
5                 CCCCCCCC[Si](OCC)(OCC)OCC         upper

Now for a further molecule.
Prompt: Form field 'band' for C=C(CN1CCc2c([nH]c3ccccc23)C1)c1ccc(C(=O)Nc2ccon2)cc1
Completion: middle

----------
# System: OVCAR-8 ovarian
# procedure-text: NCI-60 one-dose screen, 48 h (100 = growth as untreated, 0 = no growth, -100 = all killed)
# test-conditions: 10 µM unless noted
# Procedure: Growth inhibition of the OVCAR-8 human tumor cell line is measured as a screen for anti-cancer activity. Cells are grown in 96 well plates and exposed to the test compound for 48 hours. Compounds are tested at a single concentration, which is 10^-5 M for most compounds. The reported endpoint is percent growth (GI% or GIPRCNT), where numbers from 0 - 100% represent growth inhibition, and numbers from -100% - 0 represent cell death. For example, a value of 40 represents 60% growth inhibition. […]
This is part of a sample that, as a whole, favours compounds with a hit. Of some 83,000 tested, about 20% had one in any assay.
Known growth of a selection of compounds
Give the value in % but do not write % after it.

Check out these entries, answers already filled in.
>>> df
                                smiles_code  recorded_endpoint  reported_measurement
0  N#Cc1c(-c2ccccc2)cc(-c2ccccc2)n(CCCC(=O)O)c1=O             growth                  51.3
1  CCOC(=O)N1CCC(N=C2CSc3nnc(-c4cc(C(F)(F)F)cc(C(F)(F)F)c4)n3N2)CC1             growth                  22.2
2        Cc1sc2nc(NCCc3cccs3)[nH]c(=O)c2c1C             growth                  87.4

Prompt: Lab request: please report growth under test system OVCAR-8 ovarian for CCOc1nc(-c2ccco2)n2nc(-c3ccco3)cc2n1
Completion: 97

----------
# System: M14 melanoma
# procedure-text: NCI-60 one-dose screen, 48 h (100 = growth as untreated, 0 = no growth, -100 = all killed)
# test-conditions: 10 µM unless noted
# Protocol: Growth inhibition of the M14 human tumor cell line is measured as a screen for anti-cancer activity. Cells are grown in 96 well plates and exposed to the test compound for 48 hours. Compounds are tested at a single concentration, which is 10^-5 M for most compounds. The reported endpoint is percent growth (GI% or GIPRCNT), where numbers from 0 - 100% represent growth inhibition, and numbers from -100% - 0 represent cell death. For example, a value of 40 represents 60% growth inhibition. […]
The panel holds about 83,000 compounds, 20% with a hit somewhere; the sample as a whole holds those more often.
// reported growth for each item listed
Reply with just the number (in %).

Take a look at these entries with their results.
>>> df
                                   molecule  target_of_assay  recorded_endpoint  reported_measurement
0  N#Cc1c(-c2ccc(F)cc2)n2c(nc1=O)SC(=O)C2=O     M14 melanoma             growth                   105
1  COc1cc2c(cc1OC)C(=O)/C(=C/c1cccc(OCC(=O)c3ccccc3)c1)C2     M14 melanoma             growth                  96.3
2  COc1cc(C2CC(c3ccc(C)cc3)=NN2C=O)ccc1OCCN(C)C (configuration not stated)     M14 melanoma             growth                  96.8
3  Cc1ccc(N/N=C(/C(=O)c2ccc(Cl)cc2)c2nc(C)cc(=O)[nH]2)cc1     M14 melanoma             growth                  82.7
4      O=C1/C(=C/c2ccccc2O)C(=S)SN1Cc1ccco1     M14 melanoma             growth                  99.8
5  O=C(Nc1nn2c(-c3cc(C(F)(F)F)cc(C(F)(F)F)c3)nnc2s1)C1CCCC1     M14 melanoma             growth                  7.59

Now take the following molecule into account.
Prompt: // growth lookup, key: c1ccc(-c2nc(Nc3nccnn3)c3ccccc3n2)cc1
Completion: 99.3

----------
# Test system: UACC-62 melanoma
# procedure-text: NCI-60 one-dose screen, 48 h (100 = growth as untreated, 0 = no growth, -100 = all killed)
# test-conditions: 10 µM unless noted
The panel holds about 83,000 compounds, 20% with a hit somewhere; the sample as a whole holds those more often.
Catalogue of growth values
Give the quantity in %, number only.

molecule	recorded-endpoint	reported-measurement
CCSCC1CC(O)(c2ccccc2)C(c2ccccc2)C(c2ccc(Cl)cc2)O1 (stereo not drawn)	growth	0.0955
COc1ccc(C(=O)COc2cccc(/C=C3\CSc4ccc(Cl)cc4C3=O)c2)cc1	growth	71.8
COc1ccc2cc(C3=CC(=O)CCC3)ccc2c1	growth	77.1
O=c1[nH]c(N2CCC(Cc3ccccc3)CC2)nc2sc3c(c12)CCCC3	growth	98.1
CC(=O)N1N=C(c2ccc(C(F)(F)F)cc2)CC1c1ccc2c(c1)OCO2 (stereo not drawn)	growth	65
C[C@]12CC[C@H](O)CC1=CC[C@@H]1[C@@H]2CC[C@]2(C)C(c3cccnc3)=CC[C@@H]12	growth	53.2
COc1cc(/C=C\C(C)=N\Nc2ccccc2)ccc1O	growth	69.8
CC[C@H]1CN2CCc3cc(OC)c(OC)cc3C2C[C@@H]1CC1NCCc2cc(OC)c(OC)cc21 (stereo partly drawn)	growth	-82
CC1CN(C2CCCCC2)C(=O)NC1=O (stereo not drawn)	growth	87.5
O=C1/C(=C/c2ccccc2Cl)CCc2ccccc21	growth	94.2

Prompt: So what's the measured growth for this one? O=C(NN1C(=O)c2cc(C(=O)O)c(C(=O)O)cc2C1=O)c1ccncc1
Completion: 92.3

----------
# System: SW-620 colon
# procedure-text: NCI-60 one-dose screen, 48 h
# test-conditions: 10 µM unless noted
Compounds without any hit were thinned out: in the full panel of roughly 83,000, 20% have a hit. Active and inactive are the calls of the source. Rule for the calls: active = growth percent below 10; inactive = the rest.
Return exactly one item of active, inactive

// known answers, use as guide
>>> df
                                   compound  answer_label
0  Cc1cc2ccccn2c1C(=O)c1ccc(C(=O)c2ccccc2)cc1      inactive
1    COc1cc(-c2n[nH]nc2-c2ccccn2)cc(OC)c1OC      inactive
2  CC(=O)N1N=C(c2ccc(Cl)cc2)CC1c1c(C)nn(-c2ccccc2)c1N(C)Cc1ccccc1 (stereo unspecified)      inactive
3  O=c1c2c(=NCCCN3CCCC3)cc3c(=O)n(CCCN4CCCC4)c(=O)c4c(NCCCN5CCCC5)cc(c(O)n1CCCN1CCCC1)c2c4-3        active
4  CC(NC(=O)Oc1cccc2ccccc12)c1ccccc1 (stereo unspecified)      inactive
5             O=C(c1ccc(Cl)cc1)c1ccc(Cl)cc1      inactive

Prompt: What did the test return for COc1ccc([N+](=O)[O-])c(S(=O)(=O)c2ccc(Cl)cc2)n1 ?
Completion: inactive

Prompt: Give the logged outcome of this assay for the following compound: Clc1ccc2[nH]cc(-c3cncn3CCc3ccccc3)c2c1
Completion: inactive

Prompt: Look up the recorded call for c1ccc2nc(Cn3c[n+](Cc4ccc5ccccc5n4)c4ccccc43)ccc2c1 in this test.
Completion: inactive

Prompt: What classification did CC(=O)c1ccc(NS(=O)(=O)c2ccc([N+](=O)[O-])cc2)cc1 end up with in this test?
Completion: inactive

Prompt: Which outcome was assigned to CCc1ccc(-c2nc(SCC(=O)NC3CCCCC3)n[nH]2)cc1 in this test?
Completion: inactive

Prompt: Please state the recorded outcome for this compound: C1CCC(C(CC2CCCCN2)C2CCCCC2)CC1 (stereo unspecified)
Completion: active
